Source listed as PubChem BioAssay AID2100.

target: Lysosomal alpha-glucosidase (Homo sapiens) (UniProt P10253); experiment: qHTS Assay for Inhibitors and Activators of Human alpha-Glucosidase Cleavage of Glycogen; conditions: recombinant GAA, glycogen substrate, Amplex Red glucose oxidase fluorescence; series mostly up to 76.3 µM;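 also: the screen sought inhibitors and activators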
Among all 300,000 compounds or so, about 1,200 (0.4%) were called active. Inconclusive results (about 3%) are left out. Calls follow the shape of the dose curve; as a rule, active = well fitted inhibition curve with a large enough effect; inconclusive = small, poorly fitted or top-dose-only effect, or another doubt; inactive = no such curve, though single readings can be large or run the other way. Shown is part of a subset that was picked to be rich in actives.
Output constraint: value belongs to Y for active, N for inactive

In this assay, the call recorded for O=C(Nc1ccc2nc(SCCOc3ccccc3)sc2c1)c1ccco1 was what?
N

Others:
In this assay, the call recorded for CC1CCN(c2nc3ccc(C(=O)N4CCN(c5ccccc5)CC4)cc3s2)CC1 was what?
N

In this assay, the call recorded for Cc1oc(-c2ccccc2)nc1Cn1c(SCc2cccc(C(F)(F)F)c2)nc2cccnc21 was what?
N

In this assay, the call recorded for CC(=O)Nc1ccc(NC(=O)CCCc2nc(-c3ccc(C(C)(C)C)cc3)no2)cc1 was what?
N

In this assay, the call recorded for Cc1csc(NC(=O)NC2(C(F)(F)F)Oc3ccccc3O2)n1 was what?
Y
